Numbers sourced from the RepoRT retention time repository (doi:10.1021/acs.analchem.1c00972).

The compounds listed here are annotated with their LC retention time.
Test: RP, Waters ACQUITY UPLC BEH C18, 100 × 1 mm, 1.7 µm, 50 °C, 0.3 mL/min, estimated dead time 0.17 min; A: water + 0.1% formic acid + 20 mM ammonium formate; B: methanol + 0.1% formic acid + 20 mM ammonium formate; gradient (min/%B) 0/0 15/100 21/100 22/0 30/0
Conditions: stereoisomer not certain
Where a name gives a salt, the structure may show the parent alone.
Supply the numeric figure in min, leaving out any unit text.

Some compounds with recorded LC retention time:
compound	reported-metric	test-value
c1ccc2scnc2c1	LC retention time	10.8
CCN(CC)C(=O)Nc1ccc(OCC(O)CNC(C)(C)C)c(C(C)=O)c1 (stereo unspecified)	LC retention time	9.97
CCCC(=O)Nc1ccc(OCC(O)CNC(C)C)c(C(C)=O)c1 (stereo unspecified)	LC retention time	15.9
CC1=CC2OC3C(O)C(O)C(C)(C34CO4)C2(CO)C(O)C1=O (stereo unspecified)	LC retention time	5.87
O=C1CCC2(O)C3Cc4ccc(O)c5c4C2(CCN3CC2CC2)C1O5 (stereo unspecified) [Naltrexon]	LC retention time	5.88

**Q:** Return value of LC retention time for input CCCCCCCCCCOS(=O)(=O)O [Decyl sulfate] , no commentary.
**A:** 14.8

**Q:** For C=CCOC(=O)c1ccccc1C(=O)OCC=C [Diallylphthalate] , write its LC retention time.
**A:** 14.2

**Q:** Please supply the value of reported LC retention time for the item `COc1cc(OC)n2nc(S(=O)(=O)Nc3c(Cl)ccc(C)c3Cl)nc2n1`
**A:** 12

**Q:** Identify measured LC retention time corresponding to `CCCCCC1=CC(=O)C=C(OC)C1=O`
**A:** 14.3

**Q:** Recall and state the measured LC retention time for CC(=O)OC(C)(C)C=CC(=O)C(C)(O)C1C(O)CC2(C)C3CC=C4C(C=C(O)C(=O)C4(C)C)C3(C)C(=O)CC12C (stereo unspecified) .
**A:** 14.4

**Q:** Item CC=C1CC(C)C(C)(O)C(=O)OCC2=CCN(C)CCC(OC1=O)C2=O (stereo unspecified) : provide LC retention time
**A:** 9.47

---

Test: RP, Waters ACQUITY UPLC BEH C18, 100 × 1 mm, 1.7 µm, 50 °C, 0.3 mL/min, estimated dead time 0.17 min; A: water + 0.1% formic acid + 20 mM ammonium formate; B: methanol + 0.1% formic acid + 20 mM ammonium formate; gradient (min/%B) 0/0 15/100 21/100 22/0 30/0
Details: stereoisomer not certain
reported-metric: LC retention time (min)
Give just the numeric value; min need not be written.

Examples with answers:
compound	unit-label	LC retention time
Cc1ccc(S(=O)(=O)O)c(C)c1	min	7.92
NC(=O)Cc1c[nH]c2ccccc12 [indoleacetamide]	min	8
N#Cc1nn(-c2c(Cl)cc(C(F)(F)F)cc2Cl)c(N)c1S(=O)(=O)C(F)(F)F	min	15.7
CC1CC2C3CCC4=CC(=O)C=CC4(C)C3(F)C(O)CC2(C)C1(O)C(=O)CCl (stereo unspecified)	min	14.1
CN1C(=O)CN=C(C2=CCCCC2)c2cc(Cl)ccc21	min	15

# context switch: different compound, same LC retention time
**Q:** Assign LC retention time to the following record: `CNC(=O)NCc1cnc(Cl)s1`
**A:** 7.69

---

Experiment: RP, Waters ACQUITY UPLC BEH C18, 100 × 1 mm, 1.7 µm, 50 °C, 0.3 mL/min, estimated dead time 0.17 min; A: water + 10 mM ammonium bicarbonate; B: 10% water + 90% methanol + 10 mM ammonium bicarbonate; gradient (min/%B) 0/0 15/100 21/100 22/0 30/0
Conditions: stereoisomer not certain
Form field: LC retention time (one value per entry).
Kindly answer with a numeric value in min, unit omitted.

Before answering, review these 3 worked examples.
compound	LC retention time [min]
CN(Cc1cnc2nc(N)nc(N)c2n1)c1ccc(C(=O)NC(CCC(=O)O)C(=O)O)cc1 (stereo not drawn) [Methotrexate]	6.74
O=[N+]([O-])N=C1NCCN1Cc1ccc(Cl)nc1	8.74
CCC(CC)Nc1c([N+](=O)[O-])cc(C)c(C)c1[N+](=O)[O-]	17.5

**Q:** Give a short answer stating reported LC retention time for CC(=O)C1(O)CCC2C3CCC4=CC(=O)CCC4(C)C3CCC21C (stereo not drawn) [17alpha-Hydroxyprogesterone] .
**A:** 14.8

**Q:** Please list LC retention time recorded for the compound CC(=O)OC(C)(C)C=CC(=O)C(C)(O)C1C(O)CC2(C)C3CC=C4C(C=C(O)C(=O)C4(C)C)C3(C)C(=O)CC12C (stereo not drawn)
**A:** 14.7

**Q:** Return LC retention time (reported value) for this compound: `CCOP(=S)(OCC)Oc1cc(C)nc(C(C)C)n1`
**A:** 16

**Q:** Write down LC retention time measured for item `CC(C)(c1ccc(O)c(-c2ccccc2)c1)c1ccc(O)c(-c2ccccc2)c1`
**A:** 17.1

**Q:** Look up LC retention time of O=C1C=CCC2C3CCCN4CCCC(CN12)C34 (stereo not drawn) and report it.
**A:** 12.8

**Q:** Determine from records and report LC retention time for CC(C)CCCCCCCOC(=O)c1ccccc1C(=O)OCCCCCCCC(C)C [Di-iso-decylphthalate]
**A:** 21.3

**Q:** Determine from records and report LC retention time for `On1ccccc1=S`
**A:** 9.52

**Q:** Give the measured LC retention time for `CN1CCN=C(c2ccccc2)c2cc(Cl)ccc21`
**A:** 16.4

**Q:** Report LC retention time for CC1CC2C3CCC4=CC(=O)C=CC4(C)C3(F)C(O)CC2(C)C1(O)C(=O)CO (stereo not drawn)
**A:** 13.5

**Q:** Give the reported LC retention time for this compound. `CC(C)c1ccc2sc3ccccc3c(=O)c2c1`
**A:** 17.5

---

Experiment: RP, Waters ACQUITY UPLC BEH C18, 100 × 1 mm, 1.7 µm, 50 °C, 0.3 mL/min, estimated dead time 0.17 min; A: water + 10 mM ammonium bicarbonate; B: 10% water + 90% methanol + 10 mM ammonium bicarbonate; gradient (min/%B) 0/0 15/100 21/100 22/0 30/0
Details: stereoisomer not certain
Binarize LC retention time at 10 min; below is satisfied, at or above is not satisfied.

molecule	discrete-label
CCC1OC(=O)CC(O)C(C)C(OC2OC(C)C(OC3CC(C)(O)C(O)C(C)O3)C(N(C)C)C2O)C(CC=O)CC(C)C(=O)C=CC(C)=CC1COC1OC(C)C(O)C(OC)C1OC (stereo not given)	not satisfied

**Q:** Criterion: LC retention time strictly below 10 min. Is it met by CCC(C)C1OC2(C=CC1C)CC1CC(CC=C(C)C(OC3CC(OC)C(OC4CC(OC)C(NC)C(C)O4)C(C)O3)C(C)C=CC=C3COC4C(O)C(C)=CC(C(=O)O1)C34O)O2 (stereo not given) ?
**A:** not satisfied

**Q:** Quick check: LC retention time of `Cc1cc(C)nc(NC(=O)NS(=O)(=O)c2ccccc2C(=O)OC2COC2)n1` under 10 min?
**A:** satisfied

**Q:** Does the reported LC retention time of the following molecule sit strictly below 10 min? `O=c1[nH]c2c(c(=O)n1C1CCCCC1)CCC2`
**A:** not satisfied

**Q:** Quick check: LC retention time of `CCOC(=O)NCCOc1ccc(Oc2ccccc2)cc1` under 10 min?
**A:** not satisfied

**Q:** Determine if `Cn1cnc2c1c(=O)[nH]c(=O)n2C` shows LC retention time strictly lower than 10 min.
**A:** satisfied

**Q:** Hello, is LC retention time of the following molecule strictly smaller than 10 min? CCN(CCO)CCCC(C)Nc1ccnc2cc(Cl)ccc12 (stereo not given) [Hydroxychloroquine]
**A:** not satisfied

---

Assay: RP, Waters ACQUITY UPLC BEH C18, 100 × 1 mm, 1.7 µm, 50 °C, 0.3 mL/min, estimated dead time 0.17 min; A: water + 0.1% formic acid + 20 mM ammonium formate; B: methanol + 0.1% formic acid + 20 mM ammonium formate; gradient (min/%B) 0/0 15/100 21/100 22/0 30/0
Conditions: stereoisomer not certain
Where a name gives a salt, the structure may show the parent alone.
reported-metric: LC retention time (min)
Field: numeric (min). Do not append units.

molecule	LC retention time (min)
Cc1ccc(N)cc1Cl [3-Chloro-4-methylaniline]	10.1
COP(=O)(OC)OC [Trimethyl phosphate]	6.17
O=NN1CCOCC1 [N-Nitrosomorpholine]	3.69
NCCc1ccc(O)cc1 [tyramine]	2.5
Cn1c(=O)c2[nH]c(=O)[nH]c2n(C)c1=O [1,3-Dimethyluric acid]	5.8
CCOP(=S)(OCC)SCCS(=O)CC (stereo not given) [Disulfoton-sulfoxide]	12.7
O=C1Cc2cc(CCN3CCN(c4nsc5ccccc45)CC3)c(Cl)cc2N1 [Ziprasidone]	11.3
CCNc1nc(NCC)[nH]c(=O)n1 [Simazine 2-Hydroxy]	7.39
O=C(O)C(F)(F)C(F)(F)C(F)(F)C(F)(F)C(F)(F)C(F)(F)F [Perfluoroheptanoic acid]	13.8
O=C1C(Cl)C(CCl)CN1c1cccc(C(F)(F)F)c1 (stereo not given) [Flurochloridone]	14.6

**Q:** For the molecule CCCCCCCCCCCCOS(=O)(=O)O [Dodecyl sulfate] , give its reported LC retention time.
**A:** 16.2

**Q:** Given CN(C)S(=O)(=O)c1ccc(N)cc1 [4-Amino-N,N-dimethylbenzenesulfonamide] , respond with its LC retention time.
**A:** 7.95

**Q:** Fill in reported LC retention time for this entry: O=C(NC1CCCCC1)NC1CCCCC1 [Dicyclohexylurea]
**A:** 14

**Q:** Note down LC retention time recorded for CCC(=NOCC=CCl)C1=C(O)CC(C2CCOCC2)CC1=O (single isomer, unassigned; peak1) [Tepraloxydim Peak1]
**A:** 14.7

**Q:** Recall and state the measured LC retention time for O=C(Nc1ccc(Cl)cc1C(O)c1ccccc1)c1ccncc1 (stereo not given) [Inabenfide] .
**A:** 13.9
